Assay: Cytotoxicity against mouse RAW2647 cells after 24 hrs by MTT assay
Assay type: cell-based, RAW264.7
Settings: RAW2647 cells
// NB: equality with 700 µM counts as no (0); only GI50 at 24 h strictly below is yes (1)

>>> answer_label("COc1cc(/C=C/[C@H]2OC(OC)[C@@H]3OC(C)(C)O[C@H]23)cc2c1OCO2 (stereo not given in full)")
"yes (1)"
>>> answer_label("COc1cccc(/C=C/[C@H]2O[C@@H]3OC(C)(C)O[C@@H]3[C@H]2O)c1")
"yes (1)"
>>> answer_label("COc1cc(/C=C/[C@H]2OC(OC)[C@@H]3OC(C)(C)O[C@H]23)ccc1O (stereo not given in full)")
"no (0)"
>>> answer_label("COc1cc(/C=C/[C@H]2OC(OC)[C@@H]3OC(C)(C)O[C@H]23)cc(OC)c1 (stereo not given in full)")
"yes (1)"
